Reported MIC values follow for various compounds
Tested on: S. aureus, 209p
Counter-ions that a name gives are not always drawn.
All answers are understood in µg/mL, so give the number only.

As a guide, the following entries are already answered.
Compound | Reading
Nc1nc(/C(=N/OCc2cc[nH]n2)C(=O)N[C@@H]2C(=O)N3C(C(=O)[O-])=C(C[n+]4ccccc4)CS[C@H]23)cs1 [IC] | 0.39
Nc1nc(/C(=N/OCc2cn[nH]c2)C(=O)N[C@@H]2C(=O)N3C(C(=O)[O-])=C(C[n+]4ccccc4)CS[C@H]23)cs1 [IE] | 0.2
NC(=O)c1cc[n+](CC2=C(C(=O)[O-])N3C(=O)[C@@H](NC(=O)/C(=N\OCc4c[nH]cn4)c4csc(N)n4)[C@H]3SC2)cc1 [IB, trihydrochloride] | 1.56

Request: Given the entry Nc1nc(/C(=N/OCc2nnn[nH]2)C(=O)N[C@@H]2C(=O)N3C(C(=O)[O-])=C(C[n+]4ccccc4)CS[C@H]23)cs1 [b, reference compound] , what MIC was observed with S. aureus, 209p?
Result: 3.13

Request: Given the entry CO/N=C(\C(=O)N[C@@H]1C(=O)N2C(C(=O)O)=C(COC(C)=O)CS[C@H]12)c1csc(N)n1 [a, Cephotaxim, reference compound] , what MIC was observed with S. aureus, 209p?
Result: 3.13

Measured values drawn from patent US4603198A for this set.
